# experimental_details: PSAC antagonists in infected red cells, primary screen, cell-based, P. falciparum Indochina, OD700, 1 h (AID 1154)
# assay_setup: P. falciparum Indochina infected RBC osmotic lysis, called active from +8 up or from −8 down
Active and inactive are the calls of the source.
Would you mind answering with one of these outcomes? active, inactive

Recorded test outcome, item "[N-]=[N+]=Nc1ccccc1[C@H]1OC(c2ccc(OCCCO)cc2)=N[C@@]1(Cc1ccccc1)C(=O)N1CCCCC1"
active

Continue with "CCCCO[C@H]1C[C@H]2C(I)=C[C@@H]1C(=O)[C@]21CO1"
inactive

Item: "CCOC(=O)C[C@H]1[C@H](OC(=O)c2ccccc2-c2ccccc2)[C@@H](NC(=O)c2ccc(-c3ccccc3)cc2)c2cc(OCCCO)ccc2N1C(=O)c1ccc2ccccc2n1"
inactive

Another compound: "CN(C)CCCNC(=O)[C@@]1(C)c2ccccc2C(=O)N(Cc2ccccc2)[C@H]1c1ccc(CO)cc1"
inactive

Now this one: "CCCCC(=C=CC[C@@H](O)c1ccccc1OCCO)C[C@@H](O)COCc1ccccc1"
active

Then what about the compound "CN(C)CCCNC(=O)[C@@H]1c2ccccc2C(=O)N(Cc2ccccc2Cl)[C@H]1c1ccc(CO)cc1" ?
inactive

Then "CC(=O)NCCCC[C@@H]1NC(=O)[C@H]2C[C@@H](C(=O)NCCCC[N+](C)(C)C)[C@@H](c3cccc(OCCO)c3)N2C1=O" ?
inactive

Another compound to look at: "Cc1ccc(S[C@]2(C(=O)O)CC(=O)N(Cc3cc(C(F)(F)F)cc(C(F)(F)F)c3)[C@@H]2c2ccc(CO)cc2)cc1"
inactive

Try this compound next: "C=CCOC(=O)[C@H]1[C@@H]2C(=O)O[C@@H](c3ccccc3)[C@@H](c3ccccc3)N2[C@@H](c2ccc(OCCOC(=O)[C@H]3C[C@H]4C(=O)N[C@@H](CC(C)C)C(=O)N4[C@H]3c3cccc(OCCO)c3)cc2)[C@]12C(=O)Nc1ccc(I)cc12"
inactive

Next record, please: "CC(C)C[C@@H]1NC(=O)[C@@H]2C[C@H](C(=O)NCCCCN(C)C)[C@H](c3cccc(OCCO)c3)N2C1=O"
inactive

Quick one: "COc1ccc([Si](C)(C)[C@@H]2[C@@H](CCO)O[C@]3(C(=O)N(Cc4ccc(N5CCCCC5=O)cc4)c4ccccc43)[C@H]2C)cc1"
active

Repeat with "COc1ccc([Si](C)(C)[C@@H]2[C@@H](CCn3cc([C@H](O)c4ccccc4)nn3)O[C@]3(C(=O)N(Cc4ccc(N5CCC5=O)cc4)c4ccccc43)[C@H]2C)cc1"
active

"Cc1ccc(S[C@]2(C(=O)NCC(F)(F)F)CC(=O)N(C3CCCCC3)[C@@H]2c2ccc(CO)cc2I)cc1" ?
inactive

Try the compound O=C1NC(=O)C2C1C=CC(C(O)c1cccc3ccccc13)N2Nc1ccc(Cl)cc1Cl (centres undefined)
inactive

# credit: PubChem BioAssay
